# Tested on: Caco‐2
# ASSAY: Intracellular ROS assay
# Assay type: cell-based
# CONDITION DESCRIPTION: Homo sapiens, Caco-2, read-out: Intracellular ROS, percentage compared to the untreated control cells (ROS/SRB)
VALUE TYPE: activity at 1 µM (%)
Write the number in % without appending the unit.

Some compounds with recorded activity at 1 µM:
O=C(/C=C(O)/C=C/c1cccnc1)/C=C/c1c[nH]c2ccccc12 [3 h] ... 111
C(=C\c1c[nH]c2ccccc12)/c1cc(/C=C/c2cccs2)[nH]n1 [4 d] ... 458
COc1cccc2c1C(=O)c1c(O)c3c(c(O)c1C2=O)C[C@@](O)(C(=O)CO)C[C@@H]3O[C@H]1C[C@H](N)[C@H](O)[C@H](C)O1 [Dox, doxorubicin, reference compound] ... 121
COc1cc(/C=C/c2cc(/C=C/c3cccnc3)[nH]n2)ccc1O [4 a] ... 79.1
COc1cc(/C=C/C(=O)CC(=O)/C=C/c2ccc(O)c(OC)c2)ccc1O [Cur, curcumin, reference compound] ... 131

Inquiry: Quickly give me recorded activity at 1 µM for CC(=O)N[C@@H](CS)C(=O)O [NAC, N‐acetyl‐L‐cysteine, reference compound]
Reply text: 83.7

Inquiry: Specify measured activity at 1 µM for COc1cc(/C=C/c2cc(/C=C/c3ccncc3)[nH]n2)ccc1O [4 b] .
Reply text: 106

Inquiry: For the compound O=C(/C=C(O)/C=C/c1ccccn1)/C=C/c1c[nH]c2ccccc12 [3 j] , give its measured activity at 1 µM value.
Reply text: 98.2
